Values were extracted from patent US5656651A.

SYSTEM NAME: human androgen receptors (Homo sapiens)
Construct: expressed in transfected cells; host or cells: CV-1 monkey cells (clone CV1-3.9.2)
Sequence (P10275 whole entry): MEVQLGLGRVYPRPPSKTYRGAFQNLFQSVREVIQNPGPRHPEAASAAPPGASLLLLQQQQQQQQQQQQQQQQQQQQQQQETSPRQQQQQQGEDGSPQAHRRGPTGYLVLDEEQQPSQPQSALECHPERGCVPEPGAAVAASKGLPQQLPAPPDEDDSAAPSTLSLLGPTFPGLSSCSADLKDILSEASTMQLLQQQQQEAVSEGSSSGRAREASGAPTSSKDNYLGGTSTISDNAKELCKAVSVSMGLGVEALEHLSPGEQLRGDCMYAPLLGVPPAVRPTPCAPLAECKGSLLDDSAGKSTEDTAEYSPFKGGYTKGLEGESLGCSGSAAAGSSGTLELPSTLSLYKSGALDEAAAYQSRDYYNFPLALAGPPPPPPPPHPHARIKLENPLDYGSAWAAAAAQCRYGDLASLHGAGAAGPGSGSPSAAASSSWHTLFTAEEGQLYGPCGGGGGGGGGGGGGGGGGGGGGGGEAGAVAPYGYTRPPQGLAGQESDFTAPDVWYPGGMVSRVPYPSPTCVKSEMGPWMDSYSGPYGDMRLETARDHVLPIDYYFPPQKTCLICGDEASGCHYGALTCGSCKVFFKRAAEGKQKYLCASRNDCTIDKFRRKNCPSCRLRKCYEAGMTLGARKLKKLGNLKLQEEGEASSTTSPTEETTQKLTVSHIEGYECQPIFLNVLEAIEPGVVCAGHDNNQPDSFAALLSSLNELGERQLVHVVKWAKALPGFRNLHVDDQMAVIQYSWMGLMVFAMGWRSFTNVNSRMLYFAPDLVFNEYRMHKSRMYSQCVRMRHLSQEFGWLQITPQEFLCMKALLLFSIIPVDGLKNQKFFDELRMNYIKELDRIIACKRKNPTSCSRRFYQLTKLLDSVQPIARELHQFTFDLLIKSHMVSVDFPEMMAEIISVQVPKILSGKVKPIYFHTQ
ASSAY EXPLANATION: Androgen activity of anti-androgens in CVI-3.9.2 cells (CAT activity)
Format: cell-based
PROTOCOL CONDITIONS: 1 μM
Each item that follows carries a reported CAT Activity.
Report the value in cpm with no unit label.

[
  {
    "COMPOUND": "CC(C)(C)OC(=O)NCCN1C(=S)N(c2ccc(C#N)c(C(F)(F)F)c2)C(=O)C1(C)C [BP137]",
    "TEST VALUE": 2000
  },
  {
    "COMPOUND": "CC1(C)C(=O)N(c2ccc(C#N)c(C(F)(F)F)c2)C(=S)N1CC(O)CO (centres unmarked) [BP135]",
    "TEST VALUE": 1900
  },
  {
    "COMPOUND": "CC1(C)OCC(CN2C(=S)N(c3ccc(C#N)c(C(F)(F)F)c3)C(=N)C2(C)C)O1 (centres unmarked) [BP163]",
    "TEST VALUE": 2100
  },
  {
    "COMPOUND": "CC1(C)C(=O)N(c2ccc(C#N)c(C(F)(F)F)c2)C(=S)N1CCN [BP138]",
    "TEST VALUE": 1600
  }
]

Shifting focus to the compound that follows.
// query CAT Activity value for entry CC(=O)NCCN1C(=S)N(c2ccc(C#N)c(C(F)(F)F)c2)C(=O)C1(C)C [BP139] 1500
